The following binders are shown together with reported kon values.
Biological target: T1, human PD-1 (soluble PD-1 protein, R&D Systems) (human, UniProt Q15116 25-170, limits assumed)
T1 construct: the kinetics paragraphs say only 'PD-1' / 'antigen'; also called hPD-1; soluble PD-1 immunogen
T1 sequence (Q15116 25-170 limits assumed): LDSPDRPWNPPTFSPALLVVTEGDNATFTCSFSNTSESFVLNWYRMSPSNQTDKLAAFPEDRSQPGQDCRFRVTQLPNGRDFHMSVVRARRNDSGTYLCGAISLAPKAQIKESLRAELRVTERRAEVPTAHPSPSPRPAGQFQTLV
Experiment: BLI (ForteBio), mAb on AHC biosensor, PD-1 as analyte

>  <BINDER>
A17 (antibody, V domains shown, Tested as full-length mAb expressed in CHO cells; also called antibody 17; L17H17) VH: QVQLVESGGGVVQPGRSLRLSCAASGFTFSSYGMHWVRQAPGKGLEWVAVIWYDGSNQYYADSVKGRFTISRDNSKNTLFLQMNSLRAEDTAVYFCAGGGNYYGDFWGQGTLVTVSS VL: DIQMTQSPSSLSASVGDRVTITCRASQGIRNDLGWYQQKPGKAPKRLIYAASSLQSGVPSRFSGSGSGTEFTLTISSLQPEDFATYYCLQYISYPWTFGQGTKVEIK

>  <kon / M⁻¹ s⁻¹>
24200

$$$$
>  <BINDER>
A24 (antibody, V domains shown, Tested as full-length mAb expressed in CHO cells; also called antibody 24; L24H24) VH: QVQLVESGGGVVQPGRSLRLSCAASGFTFSDSGMHWVRQAPGKGLEWVAVIWYDGSKKYYVDSVKGRFTISRDNSKNTLYLQMNSLRAEDTAVYYCATEGDYWGQGTLVTVSS VL: EIVMTQSPATLSVFPGERATLSCRASQSVSSNLGWYQQKPGQAPRLLMYGASTRVTGIPARFSGSGSGTEFTLTISSLQSEDFAVYYCQQYNTWPRTFGQGTKVEIK

>  <kon / M⁻¹ s⁻¹>
217000

$$$$
>  <BINDER>
A28 (antibody, V domains shown, Tested as full-length mAb expressed in CHO cells; also called antibody 28; L28H28) VH: QVQLVESGGGLVKPGGSLKLSCAASGFTFSDYGMHWVRQAPEKGLEWVAYISSGSFAIYYADTVRGRFTISRDSAKNTLFLQMTSLRSEDTAMYYCARRGPYPYYYSMDYWGQGTSVTVSS VL: AIQMTQSPSSLSASVGDRVTITCRASQGISSALAWYQQKPGKAPKLLIYAASTLQSGVPSRFSGSGSGTDFTLTISSLQPEDFATYYCLQDYNYPWTFGQGTKVEIK

>  <kon / M⁻¹ s⁻¹>
176000

$$$$

Taken from patent US20220064302A1.
